SYSTEM_NAME: bovine intestinal alkaline phosphatase (Bos taurus (Bovine))
Sequence (P19111 20-506): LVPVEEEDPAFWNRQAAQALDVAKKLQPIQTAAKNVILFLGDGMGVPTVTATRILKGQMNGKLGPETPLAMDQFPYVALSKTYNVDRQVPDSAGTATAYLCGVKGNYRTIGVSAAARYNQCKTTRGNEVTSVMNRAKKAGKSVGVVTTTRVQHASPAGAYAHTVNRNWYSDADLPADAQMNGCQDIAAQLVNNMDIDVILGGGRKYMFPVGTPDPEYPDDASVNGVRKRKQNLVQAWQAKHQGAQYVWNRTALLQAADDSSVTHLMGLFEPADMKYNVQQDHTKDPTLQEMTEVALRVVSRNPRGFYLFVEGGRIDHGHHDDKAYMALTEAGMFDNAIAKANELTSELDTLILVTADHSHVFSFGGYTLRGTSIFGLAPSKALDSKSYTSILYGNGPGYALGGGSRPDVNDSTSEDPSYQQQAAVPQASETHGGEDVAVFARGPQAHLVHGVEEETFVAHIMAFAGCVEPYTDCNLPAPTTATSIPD
ASSAY_INFO: BiALP: conversion by bovine intestinal alkaline phosphatase
Type: in vitro ADME
MEASUREMENT_CONTEXT: 2 μM substrate, 100 ng/mL iALP, Tris pH 7.8, 37° C., 60 minutes
Hi, to clarify the labels: 1 (yes) covers [Compound] from 2000 nM upward, 0 (no) covers anything below 2000 nM.

COMPOUND	SYSTEM_NAME	CATEGORY_LABEL
COC(=O)N[C@H](C(=O)N[C@@H](Cc1ccc(C#Cc2cnc(N3CC4CCC(C3)N4C3COC3)nc2)cc1)[C@H](CN(Cc1c(F)cc(-c2ccn(C(F)F)n2)cc1F)NC(=O)[C@@H](NC(=O)OC)C(C)(C)C(F)(F)F)OC(=O)CC(C)(C)c1c(CC(=O)NCCC(=O)O)cc(C)cc1OP(=O)(O)O)C(C)(C)C(F)(F)F [Example 26]	bovine intestinal alkaline phosphatase (Bos taurus (Bovine))	0 (no)
COC(=O)N[C@H](C(=O)N[C@@H](Cc1ccc(C#Cc2ccc(N3CC4CCC(C3)N4C3COC3)nc2)cc1)[C@H](CN(Cc1c(F)cc(-c2ccn(C(F)F)n2)cc1F)NC(=O)[C@@H](NC(=O)OC)C(C)(C)C(F)(F)F)OC(=O)CC(C)(C)c1c(CC(=O)NC(CC(=O)O)C(=O)O)cc(C)cc1CP(=O)(O)O)C(C)(C)C(F)(F)F (stereo partly drawn) [Example 23]	bovine intestinal alkaline phosphatase (Bos taurus (Bovine))	1 (yes)
COC(=O)N[C@H](C(=O)N[C@@H](Cc1ccc(C#Cc2cnc(N3CC4CCC(C3)N4C3COC3)nc2)cc1)[C@H](CN(Cc1c(F)cc(-c2ccn(C(F)F)n2)cc1F)NC(=O)[C@@H](NC(=O)OC)C(C)(C)C(F)(F)F)OC(=O)CC(C)(C)c1c(CC(=O)NC(CCCC(=O)O)C(=O)O)cc(C)cc1OP(=O)(O)O)C(C)(C)C(F)(F)F (stereo partly drawn) [Example 42]	bovine intestinal alkaline phosphatase (Bos taurus (Bovine))	0 (no)
COC(=O)N[C@H](C(=O)N[C@@H](Cc1ccc(C#Cc2cnc(N3CC4CCC(C3)N4C3COC3)nc2)cc1)[C@H](CN(Cc1c(F)cc(-c2ccn(C(F)F)n2)cc1F)NC(=O)[C@@H](NC(=O)OC)C(C)(C)C(F)(F)F)OC(=O)CC(C)(C)c1c(CC(=O)N2CCN(S(N)(=O)=O)CC2)cc(C)cc1OP(=O)(O)O)C(C)(C)C(F)(F)F [Example 81]	bovine intestinal alkaline phosphatase (Bos taurus (Bovine))	1 (yes)
COC(=O)N[C@H](C(=O)N[C@@H](Cc1ccc(C#Cc2cnc(N3CC4CCC(C3)N4C3COC3)nc2)cc1)[C@H](CN(Cc1c(F)cc(-c2ccn(C(F)F)n2)cc1F)NC(=O)[C@@H](NC(=O)OC)C(C)(C)C(F)(F)F)OC(=O)CC(C)(C)c1c(CC(=O)NC(CC(=O)O)CC(=O)O)cc(C)cc1OP(=O)(O)O)C(C)(C)C(F)(F)F [Example 43]	bovine intestinal alkaline phosphatase (Bos taurus (Bovine))	0 (no)
COC(=O)N[C@H](C(=O)N[C@@H](Cc1ccc(C#Cc2cnc(N3CC4CCC(C3)N4C3COC3)nc2)cc1)[C@H](CN(Cc1c(F)cc(-c2ccn(C(F)F)n2)cc1F)NC(=O)[C@@H](NC(=O)OC)C(C)(C)C(F)(F)F)OC(=O)OCOC(=O)CC(C)(C)c1c(CC(=O)N2CCN(S(=O)(=O)N(C)C)CC2)cc(C)cc1OP(=O)(O)O)C(C)(C)C(F)(F)F [Example 86]	bovine intestinal alkaline phosphatase (Bos taurus (Bovine))	0 (no)
